Experimental target: Albumin (Bos taurus)
Sequence (P02769 whole entry): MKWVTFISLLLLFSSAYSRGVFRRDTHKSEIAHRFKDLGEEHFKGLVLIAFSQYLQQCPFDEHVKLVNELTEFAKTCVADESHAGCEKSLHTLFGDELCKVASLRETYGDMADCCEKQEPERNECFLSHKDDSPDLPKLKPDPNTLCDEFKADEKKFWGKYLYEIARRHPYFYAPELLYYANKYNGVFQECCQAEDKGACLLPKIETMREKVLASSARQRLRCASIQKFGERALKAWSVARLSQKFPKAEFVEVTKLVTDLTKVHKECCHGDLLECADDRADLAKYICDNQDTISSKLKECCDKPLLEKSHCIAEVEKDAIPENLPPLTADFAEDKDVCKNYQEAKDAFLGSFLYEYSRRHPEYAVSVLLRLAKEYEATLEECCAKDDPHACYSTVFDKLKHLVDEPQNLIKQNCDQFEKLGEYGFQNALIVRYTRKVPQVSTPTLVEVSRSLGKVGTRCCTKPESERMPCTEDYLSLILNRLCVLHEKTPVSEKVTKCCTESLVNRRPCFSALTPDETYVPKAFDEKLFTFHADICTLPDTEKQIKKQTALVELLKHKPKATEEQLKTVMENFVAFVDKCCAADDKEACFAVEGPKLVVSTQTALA
Measurement protocol: Binding affinity to bovine serum albumin assessed as decrease in protein fluorescence intensity up to 10 uM by fluorescence spectroscopic analysis
Assay type: ADME
Set-up: scale not given: the % may be the effect or the level left
Test settings: cattle, isolated protein
Test readout: Activity (%)

// solved cases for Activity follow
INSERT INTO results (sample_smiles, units_label, numeric_readout) VALUES
  ('N#CC1=CC2(c3ccccc3Nc3ccccc32)N(/N=C/c2ccc(Cl)cc2Cl)C1=O', '%', 48.01),
  ('N#CC1=CC2(c3ccccc3Nc3ccccc32)N(/N=C/c2ccccc2[N+](=O)[O-])C1=O', '%', 51.46);

A: N#CC1=CC2(c3ccccc3Nc3ccccc32)N(/N=C/c2ccc([N+](=O)[O-])cc2)C1=O
B: COc1ccc(Br)cc1/C=N/N1C(=O)C(C#N)=CC12c1ccccc1Nc1ccccc12
[Q] Activity comparison. Which is larger, A or B ? Respond with the label that goes with your answer.
[A] A
(A: 71.74%, B: 42.53%)
